system.tested: Suppressor of tumorigenicity 14 protein (Homo sapiens)
measurement.description: Binding affinity to recombinant hexahistidine tagged human MT-SP1 (596 to 855 residues) expressed in Escherichia coli BL21 gold (DE3) cells […] by ITC analysis
pKd: −log10 of the molar value.
observed.property: pKd

P = N=C(N)c1ccc(CCNC(=O)C(C(=O)NCCc2ccc(C(=N)N)cc2)C(=O)NCc2ccc(C(=N)N)cc2)cc1 (centres undefined)
Q = N=C(N)c1ccc(Oc2cc(Oc3ccc(CN)cc3)cc(Oc3ccc(CN)cc3)c2)cc1
Prompt line: Smaller pKd value? Options are P and Q Output the label that corresponds to your choice.
Response line: Q
(Q: 5.60, P: 6.41)

P = NCc1ccc(Oc2cc(Oc3ccc(CN)cc3)cc(Oc3ccc(CN)cc3)c2)cc1
Q = N=C(N)c1ccc(CCNC(=O)CC(=O)NCCc2ccc(C(=N)N)cc2)cc1
Prompt line: Given the listed records, identify the one among P and Q with higher pKd. Output the label that corresponds to your choice.
Response line: Q

====

system.tested: Suppressor of tumorigenicity 14 protein (Homo sapiens, UniProt Q9Y5Y6)
Sequence (Q9Y5Y6 whole entry, the tested form may be a part): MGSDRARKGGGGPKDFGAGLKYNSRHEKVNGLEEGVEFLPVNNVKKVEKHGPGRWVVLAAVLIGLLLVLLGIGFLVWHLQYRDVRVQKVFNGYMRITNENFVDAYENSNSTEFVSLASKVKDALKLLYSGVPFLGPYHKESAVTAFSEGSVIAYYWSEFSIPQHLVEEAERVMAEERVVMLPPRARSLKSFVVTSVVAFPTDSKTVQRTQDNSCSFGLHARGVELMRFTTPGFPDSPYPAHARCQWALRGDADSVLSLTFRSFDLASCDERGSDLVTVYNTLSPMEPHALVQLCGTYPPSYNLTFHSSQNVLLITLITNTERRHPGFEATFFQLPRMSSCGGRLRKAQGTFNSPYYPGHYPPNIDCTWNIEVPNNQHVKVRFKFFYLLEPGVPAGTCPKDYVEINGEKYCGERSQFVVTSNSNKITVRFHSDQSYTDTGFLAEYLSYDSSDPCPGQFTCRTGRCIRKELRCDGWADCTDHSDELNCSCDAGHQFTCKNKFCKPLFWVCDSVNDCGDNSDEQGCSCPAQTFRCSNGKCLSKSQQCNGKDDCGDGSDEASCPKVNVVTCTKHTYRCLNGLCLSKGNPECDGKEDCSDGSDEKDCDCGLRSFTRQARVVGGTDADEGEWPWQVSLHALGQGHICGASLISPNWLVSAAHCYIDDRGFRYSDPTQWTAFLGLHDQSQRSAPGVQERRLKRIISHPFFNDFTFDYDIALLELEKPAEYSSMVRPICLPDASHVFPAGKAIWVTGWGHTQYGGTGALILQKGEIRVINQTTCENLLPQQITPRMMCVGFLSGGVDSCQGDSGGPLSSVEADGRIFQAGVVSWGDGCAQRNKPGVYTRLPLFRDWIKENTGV
measurement.description: Inhibition of human matriptase using Mes-D-Pro-Arg-AMC.2TFA as substrate incubated for 10 mins by fluorescence based assay
pKi: −log10 of the molar value.
observed.property: pKi

A = N=C(N)c1ccc(CCNC(=O)C(C(=O)NCCc2ccc(C(=N)N)cc2)C(=O)NCc2ccc(C(=N)N)cc2)cc1 (configuration not stated)
B = N=C(N)c1ccc(CCNC(=O)CC(=O)NCCc2ccc(C(=N)N)cc2)cc1
Prompt line: Smaller pKi value? Options are A and B Output the label that corresponds to your choice.
Response line: B
(B: 5.37, A: 6.41)

====

system.tested: Suppressor of tumorigenicity 14 protein (Homo sapiens) (UniProt Q9Y5Y6)
measurement.description: Binding affinity to recombinant hexahistidine tagged human MT-SP1 (596 to 855 residues) expressed in Escherichia coli BL21 gold (DE3) cells assessed as change in entropy by ITC analysis
observed.property: -TdeltaS (kcal/mol)

N=C(N)c1ccc(Oc2cc(Oc3ccc(CN)cc3)cc(Oc3ccc(CN)cc3)c2)cc1	-9.7
NCc1ccc(Oc2cc(Oc3ccc(CN)cc3)cc(Oc3ccc(CN)cc3)c2)cc1	-8.15

I = N=C(N)c1ccc(CCNC(=O)CC(=O)NCCc2ccc(C(=N)N)cc2)cc1
II = N=C(N)c1ccc(CCNC(=O)C(C(=O)NCCc2ccc(C(=N)N)cc2)C(=O)NCc2ccc(C(=N)N)cc2)cc1 (centres undefined)
Prompt line: Smaller -TdeltaS value? Options are I and II Output the label that corresponds to your choice.
Response line: II

====

system.tested: UniProt:Q9Y5Y6
measurement.description: Binding affinity to recombinant hexahistidine tagged human MT-SP1 (596 to 855 residues) expressed in Escherichia coli BL21 gold (DE3) cells assessed as free energy change by ITC analysis
observed.property: deltaG (kcal/mol)

N=C(N)c1ccc(Oc2cc(Oc3ccc(CN)cc3)cc(Oc3ccc(CN)cc3)c2)cc1	-7.67
N=C(N)c1ccc(CCNC(=O)C(C(=O)NCCc2ccc(C(=N)N)cc2)C(=O)NCc2ccc(C(=N)N)cc2)cc1 (centres undefined)	-8.82
NCc1ccc(Oc2cc(Oc3ccc(CN)cc3)cc(Oc3ccc(CN)cc3)c2)cc1	-6.91
N=C(N)c1ccc(CCNC(=O)CC(=O)NCCc2ccc(C(=N)N)cc2)cc1	-7.98
